- Test system: UCD52 (cells of a triple-negative basal-like breast cancer xenograft);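 note: PDX cells carrying CMV promoter-driven luciferase, viability read as total photon flux per second by IVIS imaging following D-luciferin, vehicle control 0.1% DMSO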
- Experiment: cell viability (% of vehicle); higher = less cytotoxic
- Condition set: 10 µM; 72 h
hey, just use true (1) if measured cell viability is less than 100, otherwise false (0)

Please review the entries below; each comes with its answer.
O=C(NCC1CN(c2ccc(N3CCOCC3=O)cc2)C(=O)O1)c1ccc(Cl)s1 (stereo not given): true (1)
CC1CCN(C(=O)CC#N)CC1N(C)c1ncnc2[nH]ccc12.O=C(O)CC(O)(CC(=O)O)C(=O)O (stereo not given): false (0)
COc1c(N2CCNC(C)C2)c(F)cc2c(=O)c(C(=O)O)cn(C3CC3)c12 (stereo not given): false (0)

Criterion: cell viability strictly below 100. Is it met by NC(=O)c1ncn(C2OC(CO)C(O)C2O)c1O (stereo not given) ?
true (1)

Criterion: cell viability strictly below 100. Is it met by Nc1ccn(C2CSC(CO)O2)c(=O)n1 (stereo not given) ?
true (1)

Criterion: cell viability strictly below 100. Is it met by COc1c(N2CC3CCCNC3C2)c(F)cc2c(=O)c(C(=O)O)cn(C3CC3)c12.Cl (stereo not given) [Moxifloxacin HCl] ?
false (0)

Criterion: cell viability strictly below 100. Is it met by CCOC(=O)C(CCc1ccccc1)NC(C)C(=O)N1CCCC1C(=O)O.O=C(O)C=CC(=O)O (stereo not given) [Enalapril Maleate] ?
false (0)

Criterion: cell viability strictly below 100. Is it met by Cc1c(-c2ccc(O)cc2)n(Cc2ccc(OCCN3CCCCCC3)cc2)c2ccc(O)cc12.Cl [Bazedoxifene HCl] ?
true (1)
